- TARGET_OR_SYSTEM: Histamine H3 receptor (guinea pig cortex membranes) (Cavia porcellus)
- Construct: The cortex was dissected, weighed and homogenised; from tissue; host or cells: guinea pig cerebral cortex membranes
- Sequence (Q9JI35 whole entry): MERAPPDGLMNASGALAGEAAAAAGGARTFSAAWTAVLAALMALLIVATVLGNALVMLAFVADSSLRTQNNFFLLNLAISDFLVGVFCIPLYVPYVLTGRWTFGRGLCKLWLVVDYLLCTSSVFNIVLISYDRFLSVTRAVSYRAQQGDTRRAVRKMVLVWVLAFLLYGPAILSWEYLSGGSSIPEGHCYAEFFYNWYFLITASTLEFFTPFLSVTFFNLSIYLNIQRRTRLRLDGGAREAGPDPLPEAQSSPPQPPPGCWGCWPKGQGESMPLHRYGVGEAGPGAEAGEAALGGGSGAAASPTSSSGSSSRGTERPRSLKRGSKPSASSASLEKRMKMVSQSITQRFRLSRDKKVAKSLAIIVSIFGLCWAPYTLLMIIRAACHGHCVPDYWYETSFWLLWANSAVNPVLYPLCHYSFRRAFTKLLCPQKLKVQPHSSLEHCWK
- EXPERIMENT_NOTES: Histamine H3 radioligand binding assay - guinea pig cortex
- CONDITION_SUMMARY: [3H]-R-α-methylhistamine 0.1 nM final, typical variance ±0.12 log units, read-out: pKI (binding assay) - cortex (converted)
VALUE_KIND: Ki

compound="O=C1C(Cc2ccc(Cl)cc2)NS(=O)(=O)N1CCCCc1c[nH]cn1 (centres unmarked) [Example 7]" measured="0.513 nM"
compound="C[C@H]1CN(CCc2c[nH]cn2)[S+]([O-])N1 (some centres unmarked) [Example 6]" measured="43.7 nM"
compound="O=S1(=O)NCCN1CCc1c[nH]cn1 [Example 2]" measured="4170 nM"
compound="O=S1(=O)N(CCCc2c[nH]cn2)CCN1Cc1ccccc1 [Example 5]" measured="6310 nM"
compound="O=C1CNS(=O)(=O)N1CCCc1c[nH]cn1 [Example 4]" measured="115 nM"
compound="O=S1(=O)NCCN1CCCc1c[nH]cn1 [Example 3]" measured="2.57 nM"
compound="O=S1(=O)NC(Cc2ccc(Cl)cc2)CN1CCCCCc1c[nH]cn1 (centres unmarked) [Example 1]" measured="46.8 nM"
compound="O=C1CNS(=O)(=O)N1CCCCc1c[nH]cn1 [Example 8]" measured="501 nM"
